Taken from PubChem BioAssay (NCI).

# TGI values compiled below
test system: SK-MEL-2 melanoma; test: NCI tumour cell line growth inhibition, 48 h
Recorded Metric: TGI

* C=CCSc1n[nH]c(-c2cccs2)n1 | > 100 µM
* CN1c2ccccc2C2c3c(O)ccc(O)c3C=C([N+](=O)[O-])C21 (centres undefined) | 7.08 µM
* O=S(=O)(Nc1ccccc1S(=O)(=O)c1ccccc1)c1ccccc1 | > 100 µM
* COCCN1C2=CCCCC2=Nc2c(N)nc(N)nc21 | > 100 µM
* Cc1ccc(S(=O)(=O)C2=c3ncccc3=C3C(=O)c4ccccc4C(=O)C32)cc1 (centres undefined) | > 100 µM
* c1ccc2cc3n[se]nc3cc2c1 | > 100 µM
* c1ccc(-c2cc(-c3cc(-c4ccccn4)[nH]n3)n[nH]2)nc1 | > 100 µM
* COC(=O)c1c2c(c(C)[n+]([O-])c1C)C(=O)C(NCc1ccc(F)c(Cl)c1)=CC2=O | 5.06 µM
* C[C@]12CC[C@H]3[C@@H](C[C@@H]4SC(Nc5cccc(F)c5)=N[C@@]45CC(=O)CC[C@]35C)[C@@H]1CCC2=O | 5.2 µM
* CCN(C)S(=O)(=O)Nc1cccc(Nc2ncnc3cc(NC(=O)CCl)ccc23)c1Cl | 14.3 µM
* CC1CC2C3CC(F)C4=CC(=O)C=CC4(C)C3(F)C(O)CC2(C)C1(O)C(=O)CO (centres undefined) | > 100 µM
* COc1cc2cc(C(=O)O)[nH]c2cc1OCc1ccccc1 | > 100 µM
* CC(C)(C)OC(=O)C1/C(=C/CO)CN1C(=O)OC(C)(C)C (centres undefined) | > 100 µM
* CSC(=S)NN=C1CCCCC1 | > 100 µM
* O=[N+]([O-])c1ccc(N(CCO)CCO)c2c1no[n+]2[O-] | 4.78 µM
* CC1=CCC2(C#N)CCC1C2=O (centres undefined) | > 100 µM
* Cc1ccccc1NC(=O)C(=O)Cc1nc2ccccc2s1 | > 100 µM
* COC(=O)c1ccccc1CC1Cc2cc3c(cc2C1)CCC3 | 43.9 µM
* COc1cc(OC)c(/C=N/N=C(\N)NO)c(OC)c1 | > 100 µM

----------
Attribute: TGI
system: CAKI-1 renal; experiment: NCI tumour cell line growth inhibition, 48 h
Recorded Metric: TGI

• CNC(Cc1ccccc1)c1cccc(OC)c1O (stereo not drawn) = > 100 µM
• CC(=O)N1c2ccccc2C23CCN4CC5=CCOC(O)C(C5CC42)C13 (stereo not drawn) = > 100 µM
• Cc1ccc(C2SC(N)=Nc3c2c(C)nn3C(=O)c2ccncc2)cc1 (stereo not drawn) = > 10 µM

----------
system: SF-268 CNS; experiment: NCI tumour cell line growth inhibition, 48 h
Collected TGI values appear next to each entry.
Recorded Metric: TGI

• CC(C)OCN1COCN=C1NC#N = > 100 µM
• Cc1ccc(NC2=C(Cl)C(=O)c3nc(C)ccc3C2=O)cc1 = 3.78 µM
• C=C1CC2(OC1=O)c1ccccc1CCc1ccccc12 = 4.54 µM
• CCN(CC)CC(C)(C)C(=O)/C=C/c1ccc(C)cc1 = 22.1 µM
• Nc1cc(C(F)F)c(-c2nc(N3[C@@H]4CC[C@H]3COC4)nc(N3[C@@H]4CC[C@H]3COC4)n2)cn1 = > 100 µM
• CN1c2ccccc2C2c3c(O)ccc(O)c3C=C([N+](=O)[O-])C21 (stereo unspecified) = 6.54 µM
• CC(C)(C)OC(=O)C1/C(=C/CO)CN1C(=O)OC(C)(C)C (stereo unspecified) = > 100 µM
• O=[N+]([O-])C(=C1Nc2ccccc2N1)C(Cl)=C(Cl)Cl = > 100 µM
• CC(=O)O[C@H]1CCC2[C@@H]3CCC4C(=O)c5oncc5C[C@]4(C)C3CC[C@@]21C (stereo partly specified) = > 100 µM
• Cc1ccc(C2SC(N)=Nc3c2c(C)nn3C(=O)c2ccncc2)cc1 (stereo unspecified) = > 10 µM
• COc1ccc(OC)c(CCc2cc(OC)c(OC)cc2C)c1 = > 100 µM
• c1ccc(-c2cc(-c3cc(-c4ccccn4)[nH]n3)n[nH]2)nc1 = > 100 µM
• O=C1OC(=O)C2C3CCC(O3)C12 (stereo unspecified) = > 100 µM
• O=S(=O)(Nc1ccccc1S(=O)(=O)c1ccccc1)c1ccccc1 = > 100 µM
• Cc1ccc(S(=O)(=O)C2=c3ncccc3=C3C(=O)c4ccccc4C(=O)C32)cc1 (stereo unspecified) = > 90.3 µM
• N/C(=N\C(=S)N1CCCCC1)N1CCCCC1 = > 100 µM
• CSC(=S)NN=C1CCCCC1 = > 100 µM
• C=CCCCC1(C)CCCCNC1=O (stereo unspecified) = > 10 µM
• NC(=O)c1c(OCc2c(F)cc(Br)cc2F)nsc1NC(=O)NCCCCN1CCCC1 = > 10 µM
• Cc1cc(S(=O)(=O)Nc2nc(N)n(C)n2)c(S)cc1Cl = > 10 µM
• O=C1C=C(Br)C(=O)C(Br)=C1 = > 100 µM
• CCCCCCCCCCCCCCCCCC(=O)NCCCNCCCNC(=O)CCCCCCCCCCCCCCCCC = > 100 µM
• COc1ccc(OC)c(-c2nc3sccn3c2/C=C2/C(=O)Nc3ccccc32)c1 = 24.2 µM
• CC1=NN(C(=O)c2ccc(Cl)cc2)C(=O)/C1=C/c1cccc(O)c1 = > 100 µM
• COc1cc2c(cc1OC)-c1cc3ccccc3c(=O)n1CCC2 = > 100 µM
• N#Cc1ccc(-n2cnc(NC(=O)[C@H]3CCN(C#N)C3)c2)cc1 = 25.5 µM
• Nc1nc(N)c(-c2ccccc2)c(C(=O)Nc2ccc(Cl)c(Cl)c2)n1 = > 100 µM
• O=C(Nc1cc(C(F)(F)F)ccc1Cl)C(=O)C(C(=O)c1ccc2ccccc2c1)C1OC(=O)c2ccccc21 (stereo unspecified) = 52.8 µM
• COc1ccc(C2=C(OC(C)=O)c3cccn3-c3ccccc3S2)cc1 = > 10 µM
• C=C1C(=O)C=C2C=C3C(=O)C(C)(C)C[C@]3(O)C12C (stereo partly specified) = 28.2 µM
• CS(=O)(=O)c1ccc(C(F)(F)F)cc1NC(=O)Nc1cnc(Oc2ccc(-c3cc(Cl)cnc3N)cc2)nc1 = 10.3 µM
• O=C1C(Nc2ccccn2)=C(I)C(=O)c2ncccc21 = 3.8 µM
• CC(C)(C)C1CCC2c3c([nH]c4ccccc34)C3C(=O)N(c4ccc(Br)cc4)C(=O)C3C2C1 (stereo unspecified) = 49.8 µM
• CCCCNc1nc(SC)nc2nc[nH]c12 = > 100 µM
• CC1(C)[C@H](O)CC[C@]2(C)C3=CC[C@@]4(C)[C@@H]5C[C@](C)(CO)CC[C@]5(C)CC[C@]4(C)C3=CC[C@@H]12 = > 100 µM
• C[C@]12CC[C@@H]3c4ccc(O)cc4CC[C@H]3[C@@H]1CC[C@@H]2NS(=O)(=O)c1cccc(Br)c1 = 16.6 µM
• CC1CC2C3CC(F)C4=CC(=O)C=CC4(C)C3(F)C(O)CC2(C)C1(O)C(=O)CO (stereo unspecified) = > 100 µM
• O=C1OC(c2ccc([N+](=O)[O-])cc2)=N/C1=C\c1ccc(O)cc1 = > 100 µM
• CNC(=O)OCc1nc(S(C)=O)n(C)c1COC(=O)NC (stereo unspecified) = > 100 µM
• CC(C)NC(C)Cc1ccccc1 (stereo unspecified) = > 100 µM
• Cc1cc(NC(=O)CCc2ccc(N3C(N)=NC(N)=NC3(C)C)cc2)ccc1S(=O)(=O)F = > 100 µM

----------
test system: TK-10 renal; assay: NCI tumour cell line growth inhibition, 48 h
Reported GI50 by item:
Recorded Metric: GI50

* Cc1ccnc2c1NC(=O)c1cccnc1N2C1CC1 | > 100000 nM
* Cc1cc(N2CCN(C)CC2)nc(NC2CCCC(Nc3ccnc4cc(Cl)ccc34)C2)n1 (stereo not given) | 1810 nM
* COCCOC(C)C(/C=N/NC(N)=S)=N/NC(N)=S (stereo not given) | > 100000 nM
* Clc1ccc2c(NCCNc3nc(-c4ccccc4)cc(-c4ccccc4)n3)ccnc2c1 | 1860 nM
* CS(=O)(=O)c1ccc(C(F)(F)F)cc1NC(=O)Nc1cnc(Oc2ccc(-c3cc(Cl)cnc3N)cc2)nc1 | 2210 nM

----------
tested on: U251 CNS; test: NCI tumour cell line growth inhibition, 48 h
Recorded Metric: TGI

- C=C1CC(OC)(C(O)C(=O)N[C@H]2OCO[C@H]3C2O[C@H](C[C@@H](CO)OC)C(C)(C)C3OC)O[C@H](C)[C@@H]1C (some centres undefined): < 0.00932 µM
- COC(=O)C1=NN2c3ccccc3CN([C@@H](C)c3ccccc3)C(=O)[C@@H]2C1: > 100 µM
- Cc1ccc(C2SC(N)=Nc3c2c(C)nn3C(=O)c2ccncc2)cc1 (centres undefined): > 10 µM
- Cn1cc(-c2ccc(CCOC3CCCCO3)cc2)c2c(C#N)cccc21 (centres undefined): > 100 µM
- CCC(C)(C)NC1=C(NC(C)=O)C(=O)c2ccccc2C1=O: > 75 µM
- C/C=C/C=C/[C@H]1Cc2cc(O)cc(O)c2O1: > 100 µM
- C=CC(=O)Nc1cc2c(Nc3ccc(OCc4ccccn4)c(Cl)c3)ncnc2cc1OCCN1CCOCC1: > 100 µM
- CCCCCCCCCCCCCCCCCCNc1ccn(C2OC(CO)C(OP(=O)(O)OCC3CCC(n4ccc(N)nc4=O)O3)C2O)c(=O)n1 (centres undefined): > 100 µM
- COc1cccc(/C=N/n2c(-c3ccccc3)n[nH]c2=O)c1: > 100 µM
